# Tested on: MALME-3M melanoma
# test.details: NCI tumour cell line growth inhibition, 48 h; in the data active means GI50 below about 0.43 µM; inactive means the rest
Outcome codes: active, inactive

> print(dat)
                                    compound  answer.label
 1  CC(=O)N[C@@H](Cc1ccc(OP(=O)(O)O)cc1)C(=O)N[C@H]1CCC(=O)N2CCC[C@@H](C(=O)NC3CCc4ccccc43)N2C1=O (some centres undefined)      inactive
 2  Cc1c(C(=O)c2ccccc2)[n+](=O)c2cc(F)c(F)cc2n1[O-]      inactive
 3  CCOc1ccc2c(c1)C(=O)c1c-2n(CCCN=[N+]=[N-])c(=O)c2cc([N+](=O)[O-])ccc12      inactive
 4  O=C(CN1CCN(C(=O)c2ccco2)CC1)Nc1ccc(Cl)cc1C(=O)c1ccccc1Cl      inactive
 5  C[C@]12CC[C@@H]3c4ccc(OC(=O)N(CCCl)CCCl)cc4CC[C@H]3[C@@H]1CC[C@@H]2OP(=O)(O)O      inactive
 6  COc1c(B(O)O)cccc1-c1nc2c(F)cc3n[nH]c(C)c3c2c2c1CCCC2      inactive
 7  CC[C@@H](C)/C=C(C)/C=C/C(=O)c1c(O)c(-c2ccc(O)cc2)cn(OC2CC(=O)CCC(C)OC(=O)CC2O)c1=O (some centres undefined)        active
 8  COc1cc(C2CC(c3cccc(Nc4ccnc5cc(Cl)ccc45)c3)=NN2c2ccccc2)cc(OC)c1OC (centres undefined)      inactive
 9  Cn1c(=O)c(Oc2ccc(F)cc2F)cc2cnc(NCC(C)(C)O)nc21      inactive
10  COc1ccc(/C=C/C(=O)/C=C(O)/C=C/c2ccc(OC)c(OC)c2)cc1OC      inactive
11  Nc1n[nH]c2ccc([C@@H]3Nc4ccc5cn[nH]c5c4[C@H]4C5CCC(C5)[C@@H]34)cc12 (some centres undefined)      inactive
12  COc1ccc(/C=C\c2cc(OC)c(OC)c(OC)c2)c(NS(=O)(=O)c2ccc(F)cc2)c1O      inactive
13  CCCCCCCCCCCCCCCCCCOc1ccccc1COP(=O)(O)OOCC[N+](C)(C)C      inactive
14  CN(C)C1CN(C(=O)c2cc(-c3ccc4ncnc(N5CCc6cc(F)c(Cl)cc65)c4c3)cnc2N)C1      inactive

====

# System: HT29 colon
# test.details: NCI tumour cell line growth inhibition, 48 h; in the data active = GI50 below about 0.43 µM; inactive = the rest
Outcome codes: label 1 (active), label 0 (inactive)

> print(dat)
                                 mol.smiles  answer.label
1  CC/C(=C(/c1ccc(OCCN(C)C)cc1)c1ccc(OC(=O)CCCCCCCCC(=O)c2c(C)[nH]c(/C=C3\N=C(c4ccc[nH]4)C=C3OC)c2C)cc1)c1ccccc1       label 0
2                   [CH3][Hg]/[N]=C(/N)NC#N       label 0
3  COC(=O)Nc1nc2ccc(C(=O)c3ccc(F)cc3)cc2[nH]1       label 1

====

# System: UO-31 renal
# test.details: NCI tumour cell line growth inhibition, 48 h

compound	result.comparator	TGI, µM
CCCC(C(=O)OC)C1N=C(NC#N)N(Cc2ccccc2)C1=O (configuration not stated)	>	100
Cc1cccc(N=N/C(=N\NC(=O)c2cc(Cl)ccc2O)c2ccc(N(CCC#N)CCC#N)cc2C)c1	=	82.9
O=C(Nc1ccc(Cl)cc1)c1cc(S(=O)(=O)N2CCNNC2=O)c(S)cc1Cl	>	100
CC(C)C(=O)/C=C/c1c(Cl)cccc1Cl	=	16
COc1ccc(/C=C\c2cc(OC)c(OC)c(OC)c2)c(NS(=O)(=O)c2ccc(F)cc2)c1O	>	82.9
CC(N)C(C)c1ccccc1 (configuration not stated)	>	100
CC(=O)OCC1OC(O[C@H]2C=C[C@@H](C(=O)OCc3ccccc3)n3c(=O)n(-c4ccccc4)c(=O)n32)C(OC(C)=O)C(OC(C)=O)C1OC(C)=O (some centres not stated)	=	2.93
